- Test system: RSV Long strain
- Protocol Details: Viral cytopathic effect (CPE) assay, anti-RSV activity
- Assay type: cell-based, Respiratory Syncytial Virus
- Condition Summary: human respiratory syncytial virus, 144 h, RSV Long strain (ATCC); cell viability after 6 days, Cell Counting kit-8
Structures can show the parent of a compound that is named as a salt.
Decide using EC50 alone. Strictly below 0.05 µM: MET. Equal to or above 0.05 µM: NOT MET.

compound=NCCCc1cc(N2CCCc3ccccc3C2)nc2ccccc12 label_class="NOT MET"
compound="Cc1ccc2nc(N3CCS(=O)(=O)c4ccccc4C3)cc(NCC(O)CC(=O)O)c2c1 (centres unmarked)" label_class="NOT MET"
compound="NCC(O)CNc1cc(N2CCCc3ccccc3C2)nc2ccccc12 (centres unmarked) [Example 118-8, trifluoroacetate]" label_class="NOT MET"
compound=Cc1ccc2nc(N3CCS(=O)(=O)c4ccccc4C3)cc(NC(CN)(CO)CO)c2c1 label_class=MET
compound=NCCNc1cc(N2CCS(=O)(=O)c3ccccc3C2)nc2ccc(Cl)cc12 label_class="NOT MET"
compound=NC1(CNc2cc(N3CCS(=O)(=O)c4ccc(F)cc4C3)nc3ccc(Cl)cc23)COC1 label_class="NOT MET"
compound=Cc1ccc2nc(N3CCC(F)(F)c4ccccc4C3)cc(N(CCO)CCO)c2c1 label_class="NOT MET"
compound="Cc1ccc2nc(N3CCS(=O)(=O)c4ccccc4C3)cc(NC3CCNC3)c2c1 (centres unmarked)" label_class=MET
compound=Cc1ccc2nc(N3CCS(=O)(=O)c4ccccc4C3)cc(NCCCN)c2c1 label_class=MET
compound=Cc1ccc2c(c1)S(=O)(=O)CCN(c1cc(NCC3(N)COC3)c3ccccc3n1)C2 label_class="NOT MET"
compound=NCCNc1cc(N2CCCc3ccc(C(=O)O)cc3C2)nc2ccccc12 label_class="NOT MET"
compound="O=S1(=O)CCN(c2cc(NCC(O)CO)c3cc(Cl)ccc3n2)Cc2ccccc21 (centres unmarked)" label_class="NOT MET"
compound="Cc1ccc2nc(N3CCS(=O)(=O)c4ccccc4C3)cc(NCC3CCN3)c2c1 (centres unmarked)" label_class=MET
compound="NC1CCN(c2cc(N3CCS(=O)(=O)c4ccccc4C3)nc3ccncc23)C1 (centres unmarked)" label_class=MET
compound=Cc1ccc2nc(N3CCS(=O)(=O)c4ccccc4C3)nc(NCCN)c2c1 label_class=MET
compound=Cc1ccc2nc(N3CCS(=O)(=O)c4ccccc4C3)nc(NC3CNC3)c2c1 label_class=MET
compound=NCCNc1cc(N2CCCc3ccccc3C2)nc2ccc(Oc3ccccn3)cc12 label_class="NOT MET"

---

- System: RSV Long strain
- Protocol Details: Viral cytopathic effect (CPE) assay, anti-RSV activity
- Assay type: cell-based, Respiratory Syncytial Virus
- Condition Summary: human respiratory syncytial virus, 144 h, RSV Long strain (ATCC); cell viability after 6 days, Cell Counting kit-8
Output 1 for records whose EC50 is lower than 0.1 µM, -1 for records at or above 0.1 µM.

compound="NCC1(CNc2nc(N3CC[S+]([O-])c4ccccc4C3)nc3ccc(CO)cc23)COC1 (centres unmarked)" label_class=1
compound=Cc1ccc2nc(N3CCS(=O)(=O)c4ccccc4C3)cc(CC[C@@H]3COC(N)=N3)c2c1 label_class=-1
compound="CCC(N)C(=O)Nc1cc(N2CCS(=O)(=O)c3ccccc3C2)nc2ccc(C)cc12 (centres unmarked)" label_class=-1
compound="Cc1ccc2nc(N3CCS(=O)(=O)c4ccccc4C3)cc(N3C[C@@H](O)[C@@H](N)C3)c2c1 (relative stereo)" label_class=1
compound=CCOc1ccc2c(c1)CN(c1cc(NCCN)c3ccccc3n1)CCC2 label_class=-1
compound=Cc1ccc2nc(N3CCS(=O)(=O)c4ccccc4C3)cc(NCCCCCCCCCO)c2c1 label_class=-1
compound="Cc1ccc2nc(N3CCS(=O)(=O)c4ccccc4C3)cc(NC(=O)C3CCCNC3)c2c1 (centres unmarked)" label_class=-1
compound=COc1ccc2c(c1)CN(c1cc(N)c3cc(C)ccc3n1)CCS2(=O)=O label_class=-1
